Ref: patent US20060058231A1

- tgt: T1, BMPRIb receptor-Fc fusion (UniProt O00238 14-126)
- T1 construct: BMP receptor-Fc fusion used at 5 ug/mL; also called ALK-6
- T1 sequence (looked up): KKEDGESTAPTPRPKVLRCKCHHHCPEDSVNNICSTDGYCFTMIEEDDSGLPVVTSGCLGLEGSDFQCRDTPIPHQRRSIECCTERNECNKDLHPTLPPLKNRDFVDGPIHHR
- experiment notes: ELISA-like plate assay, captured BMP-7 from conditioned media, receptor-Fc detection
endpoint name: BMPRIb binding (relative to wild type = 1.0)

binder="BMP-7 variant F93G (ligand, In conditioned media; numbering on mature BMP-7) STGGKQRSQNRSKTPKNQEALRMASVAENSSSDQRQACKKHELYVSFRDLGWQDWIIAPEGYAAYYCEGECAFPLNSYMNATNHAIVQTLVHGINPETVPKPCCAPTQLNAISVLYFDDSSNVILKKYRNMVVRACGCH" measured="0.53 relative to wild type"

Request: For BMP-7 variant N76A (ligand, In conditioned media; numbering on mature BMP-7) STGGKQRSQNRSKTPKNQEALRMASVAENSSSDQRQACKKHELYVSFRDLGWQDWIIAPEGYAAYYCEGECAFPLASYMNATNHAIVQTLVHFINPETVPKPCCAPTQLNAISVLYFDDSSNVILKKYRNMVVRACGCH , what is its reported BMPRIb binding (relative to wild type = 1.0)?
Result: 0.81 relative to wild type
